system: J774.1 macrophages; test: Cytotoxicity (Alamar Blue) in macrophages; type: cell-based, murine; conditions: 72 h
Task for the reader: assign each of the following compounds its reported CC50.
Just the number plus its unit, please.

C=C(C)C1CCC2(C=NO)CCC3(C)C(CCC4C5(C)CCC(=NO)C(C)(C)C5CCC43C)C12 (centres unmarked) | 48.1 µM

So what does the record say about CC50 for C=C(C)C1CCC2(C=NO)CCC3(C)C(CCC4C5(C)CCC(O)C(C)(C)C5CCC43C)C12 (centres unmarked) ?
19.3 µM

###

Task for the reader: assign each of the following compounds its reported CC50 at 72 h.
assay: Cytotoxicity (Alamar Blue) in macrophages; format: cell-based, murine; details: mouse, J774.1 macrophages

C=C(C)[C@@H]1CC[C@]2(CO)CC[C@]3(C)[C@H](CC[C@@H]4[C@@]5(C)CC[C@H](O)C(C)(C)[C@@H]5CC[C@]43C)[C@@H]12 [Compound 1, betulin] | 25.1 µM

// below: CC50 at 72 h requested for another compound
So what does the record say about CC50 at 72 h for C[C@@H]1[C@H](O)[C@@H](C)/C=C/C=C/C=C/C=C/C=C/C=C/C=C/[C@H](O[C@@H]2O[C@H](C)[C@@H](O)[C@H](N)[C@@H]2O)C[C@@H]2O[C@](O)(C[C@@H](O)C[C@@H](O)[C@H](O)CC[C@@H](O)C[C@@H](O)CC(=O)O[C@H]1C)C[C@H](O)[C@H]2C(=O)O [AmB, amphotericin-B, reference compound] ?
> 10 µM

All values here come from paper PMC7913927.
